Please provide measured MFI at 0 nM mAb (background) for the entries that follow.
target: T1, Human CD33 full length, expressed on HEK293F cells (human, UniProt P20138 18-364); assay: flow cytometry, HEK293F cells expressing human CD33
T1 construct: HEK293F cells transduced with lentivirus containing full length human CD33; also called huCD33
T1 sequence (P20138 18-364 limits assumed): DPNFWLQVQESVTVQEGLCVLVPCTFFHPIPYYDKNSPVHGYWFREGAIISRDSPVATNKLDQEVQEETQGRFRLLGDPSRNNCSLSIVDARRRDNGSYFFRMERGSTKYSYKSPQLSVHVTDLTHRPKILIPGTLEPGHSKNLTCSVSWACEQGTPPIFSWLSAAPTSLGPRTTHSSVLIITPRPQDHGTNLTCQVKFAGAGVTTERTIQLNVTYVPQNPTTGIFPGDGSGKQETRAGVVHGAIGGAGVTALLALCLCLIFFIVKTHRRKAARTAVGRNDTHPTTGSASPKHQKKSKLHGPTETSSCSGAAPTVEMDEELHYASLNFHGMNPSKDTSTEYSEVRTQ
Lab book: enter the figure in MFI, no units written.

get_value(item= C33B125 (antibody, IgG1, V domains shown, huIgG1 F405L; also called C33F130; C33H84/C33L66) VH: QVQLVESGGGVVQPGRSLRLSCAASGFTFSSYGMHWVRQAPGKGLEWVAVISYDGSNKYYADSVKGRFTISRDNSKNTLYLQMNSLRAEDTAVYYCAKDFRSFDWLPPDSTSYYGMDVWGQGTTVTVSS VL: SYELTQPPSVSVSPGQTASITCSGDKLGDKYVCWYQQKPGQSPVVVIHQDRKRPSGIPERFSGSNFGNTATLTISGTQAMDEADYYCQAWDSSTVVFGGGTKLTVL , readout=MFI at 0 nM mAb (background)) returns 78.3

get_value(item= C33B124 (antibody, IgG1, V domains shown, huIgG1 F405L; also called C33F129; C33H73/C33L32) VH: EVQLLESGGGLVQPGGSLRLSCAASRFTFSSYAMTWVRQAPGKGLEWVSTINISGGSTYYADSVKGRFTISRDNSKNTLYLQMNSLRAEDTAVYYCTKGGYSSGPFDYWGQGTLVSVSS VL: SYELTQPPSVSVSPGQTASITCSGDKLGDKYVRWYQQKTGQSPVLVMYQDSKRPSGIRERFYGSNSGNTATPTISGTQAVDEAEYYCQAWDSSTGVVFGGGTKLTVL , readout=MFI at 0 nM mAb (background)) returns 172

get_value(item= C33B122 (antibody, IgG1, V domains shown, huIgG1 F405L; also called C33F127; C33H92/C33L30) VH: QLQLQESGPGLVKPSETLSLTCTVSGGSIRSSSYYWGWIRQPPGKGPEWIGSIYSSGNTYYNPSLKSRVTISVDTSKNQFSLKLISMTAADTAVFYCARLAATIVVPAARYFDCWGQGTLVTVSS VL: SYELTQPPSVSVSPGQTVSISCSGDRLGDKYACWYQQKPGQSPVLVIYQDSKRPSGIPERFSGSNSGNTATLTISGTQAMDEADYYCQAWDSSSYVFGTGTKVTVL , readout=MFI at 0 nM mAb (background)) returns 65

get_value(item= C33B96 (antibody, IgG1, V domains shown, huIgG1 F405L; also called C33F101; C33H99/C33L37) VH: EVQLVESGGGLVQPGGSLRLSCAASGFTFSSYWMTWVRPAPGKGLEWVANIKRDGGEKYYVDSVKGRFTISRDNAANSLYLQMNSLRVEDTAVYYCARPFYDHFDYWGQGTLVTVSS VL: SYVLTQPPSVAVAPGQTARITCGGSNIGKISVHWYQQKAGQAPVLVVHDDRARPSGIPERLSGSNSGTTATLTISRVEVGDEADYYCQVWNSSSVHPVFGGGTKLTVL , readout=MFI at 0 nM mAb (background)) returns 55.2

get_value(item= C33B66 (antibody, IgG1, V domains shown, huIgG1 F405L; also called C33F71; C33H55/C33L42) VH: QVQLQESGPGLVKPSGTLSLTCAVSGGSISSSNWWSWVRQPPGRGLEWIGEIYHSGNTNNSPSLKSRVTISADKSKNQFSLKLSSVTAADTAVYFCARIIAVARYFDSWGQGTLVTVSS VL: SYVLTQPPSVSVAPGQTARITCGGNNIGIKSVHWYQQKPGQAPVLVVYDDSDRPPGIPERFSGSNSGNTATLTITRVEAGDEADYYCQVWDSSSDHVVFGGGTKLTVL , readout=MFI at 0 nM mAb (background)) returns 130

get_value(item= C33B48 (antibody, IgG1, V domains shown, huIgG1 F405L; also called C33F53; C33H80/C33L73) VH: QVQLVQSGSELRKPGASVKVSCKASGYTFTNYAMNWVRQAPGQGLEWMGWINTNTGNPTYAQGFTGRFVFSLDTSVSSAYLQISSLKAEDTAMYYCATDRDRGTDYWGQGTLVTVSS VL: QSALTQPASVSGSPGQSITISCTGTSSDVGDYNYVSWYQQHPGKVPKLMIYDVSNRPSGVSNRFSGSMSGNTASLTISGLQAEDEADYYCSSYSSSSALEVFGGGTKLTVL , readout=MFI at 0 nM mAb (background)) returns 91.1
